Recorded Log P for the following molecules
# test.method.notes: Measurement of logP values by HPLC on reversed phase columns (EEC directive 79/831 Annex V.A8)
# Assay type: physicochemical
# test.settings: HPLC, pH 2.7, 0.1% formic acid in water / acetonitrile
Answer with a number only.

molecule: Cc1snnc1C(=NOCc1cccc(NC(=O)C2CCc3ccccc3O2)n1)c1ccccc1 (racemic)
meas.value: 4.66
--
molecule: Cc1snnc1C(=NOCc1csc(NC(=O)C2CC(=O)c3cc(F)ccc3O2)n1)c1ccccc1 (mixture of isomers)
meas.value: 3.72
--
molecule: Cc1snnc1C(=NOCc1cccc(NC(=O)C2CN(C)c3ccccc3O2)n1)c1ccccc1 (racemic)
meas.value: 4.56

Could you now look at the following molecule, please?
query: Tell us which Log P value is on record for Cc1cccc2c1OC(C(=O)Nc1cccc(CON=C(c3ccccc3)c3nnsc3C)n1)CO2 (racemic)
result: 4.73

---

# test.method.notes: Measurement of logP values by HPLC on reversed phase columns (EEC directive 79/831 Annex V.A8)
# Assay type: physicochemical
# test.settings: reversed-phase HPLC column, pH 2.7, [I1] main isomer; HPLC, pH 2.7, 0.1% formic acid; read-out: Log P
observable: chromatographic logP
Answer with a number only.

query: Tell us which chromatographic logP value is on record for Cc1snnc1C(=NOCc1csc(NC(=O)C2COc3ccccc3O2)n1)c1ccccc1 (stereo not shown)
result: 3.99

---

# test.method.notes: Measurement of logP values by HPLC on reversed phase columns (EEC directive 79/831 Annex V.A8)
# Assay type: physicochemical
# test.settings: reversed-phase HPLC column, pH 2.7, mixture of Z and E diastereoisomers, two values; read-out: logP(HCOOH)
# Protocol: Measurement of logP values was performed according EEC directive 79/831 Annex V.A8 by HPLC (High Performance Liquid Chromatography) on reversed phase columns with the following methods: […]
observable: chromatographic logP
Answer with a number only.

query: Tell us which chromatographic logP value is on record for Cc1snnc1C(=NOCc1csc(NC(=O)C2COc3ccccc3O2)n1)c1ccccc1 (stereo not shown)
result: 3.99
